System: MOLT-4 leukemia
Assay: NCI-60 one-dose screen, 48 h
Details: 10 µM unless noted
The panel holds about 83,000 compounds, 20% with a hit somewhere; the sample as a whole holds those more often. Active and inactive are the calls of the source. How the source made its calls: active means growth percent below 10; inactive means the rest.
# output must be one of TRUE (active), FALSE (inactive)

These solved cases illustrate the format of a correct answer.
[[record]]
molecule = "Nc1nc(SCc2ccccc2Cl)c(-c2ccccc2)c(SCc2ccccc2Cl)n1"
system_under_test = "MOLT-4 leukemia"
label_class = "FALSE"

[[record]]
molecule = "CC(=O)O[C@H]1C(=O)[C@@]2(C)C([C@H](OC(=O)c3ccccc3)[C@]3(O)C[C@H](OC(=O)[C@H](O)[C@@H](NC(=O)c4ccccc4)c4ccccc4)C(C)=C1C3(C)C)[C@]1(OC(C)=O)CO[C@@H]1C[C@@H]2O (some centres not stated)"
system_under_test = "MOLT-4 leukemia"
label_class = "FALSE"

[[record]]
molecule = "Cn1cnc([N+](=O)[O-])c1S(=O)(=O)Oc1ccc(Cl)cc1"
system_under_test = "MOLT-4 leukemia"
label_class = "TRUE"

[[record]]
molecule = "O=C(OC[C@H]1O[C@H](OC(=O)c2cc(O)c(O)c(OC(=O)c3cc(O)c(O)c(O)c3)c2)[C@H](OC(=O)c2cc(O)c(O)c(OC(=O)c3cc(O)c(O)c(O)c3)c2)[C@@H](OC(=O)c2cc(O)c(O)c(OC(=O)c3cc(O)c(O)c(O)c3)c2)[C@@H]1OC(=O)c1cc(O)c(O)c(OC(=O)c2cc(O)c(O)c(O)c2)c1)c1cc(O)c(O)c(OC(=O)c2cc(O)c(O)c(O)c2)c1"
system_under_test = "MOLT-4 leukemia"
label_class = "FALSE"


Query: What did this assay record as the result for `CCC(=O)Nc1ccccc1C#C/C=C\C#Cc1ccccc1C(F)(F)F` ?
Result: FALSE

Query: What did this assay record as the result for `c1cnc2n[nH]c(Nc3ncnc4c3sc3ncccc34)c2c1` ?
Result: FALSE
